# Target or test system: Heat shock 70 kDa protein 1A (Homo sapiens)
# Experiment: Hsp70 inhibitors, probe displacement, primary screen, biochemical, fluorescence polarization (AID 583);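 note: plate controls were vehicle for no effect and reference ligand for full effect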
# Details: mP, at 20 µM, hits give high values
The whole screen tested about 140,000 compounds, of which about 80 (0.06%) were called active. Shown is part of a subset that was picked to be rich in actives.
Property label: displacement (%)
// return numeric value only (unit: %, not printed)

{"Molecule": "CC1=C(C)CC2C(=O)N(c3ccc(Br)cc3)C(=O)C2C1 (stereo unspecified)", "Target or test system": "Heat shock 70 kDa protein 1A (Homo sapiens)", "Numeric result": 4.3}
{"Molecule": "O=C1C2CC=C(c3ccccc3)CC2C(=O)N1c1ccc(Br)cc1 (stereo unspecified)", "Target or test system": "Heat shock 70 kDa protein 1A (Homo sapiens)", "Numeric result": 60.4}

In plain terms, C=CCN1C(=O)/C(=C\c2ccc(I)o2)C(=O)NC1=S has a documented displacement of 0.9

----------
Reported displacement values are given for each entry in this list.
# Target or test system: Heat shock 70 kDa protein 1A (Homo sapiens)
# Experiment: Hsp70 inhibitors, probe displacement, primary screen, biochemical, fluorescence polarization (AID 583);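 note: plate controls were vehicle for no effect and reference ligand for full effect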
# Details: mP, at 20 µM, hits give high values
The whole screen tested about 140,000 compounds, of which about 80 (0.06%) were called active. The full list was thinned out, with actives kept by preference.
// return numeric value only (unit: %, not printed)

Record excerpt, results attached:
{"Compound": "Cc1c(C#N)c2nc3ccccc3n2c(=O)/c1=C\\c1c(O)n(-c2ccc(Br)cc2)[nH]c1=O", "Units of measure": "%", "displacement": 24.7}
{"Compound": "CC1(C)C2CCC1(C)C(NC(=O)C1CC3c4ccccc4C1c1ccccc13)C2 (configuration not stated)", "Units of measure": "%", "displacement": 1.1}
{"Compound": "O=C(O)C1Nc2c(cccc2[N+](=O)[O-])C2C=CCC12 (configuration not stated)", "Units of measure": "%", "displacement": 76.9}
{"Compound": "NC1=NC(=O)/C(=C/c2ccc(-c3ccc([N+](=O)[O-])cc3Br)o2)S1", "Units of measure": "%", "displacement": 44.5}
{"Compound": "O=C1S/C(=C\\c2cccs2)C(=O)N1c1cccc(Cl)c1", "Units of measure": "%", "displacement": -1.3}

In plain terms, Cc1c(C(=O)Nc2ccc3oc(-c4ccc(Cl)cc4Cl)nc3c2)cccc1[N+](=O)[O-] has a documented displacement of -1.5

In plain terms, NC(=O)c1ccc(NC(=O)Cc2ccc(Cl)cc2)cc1 has a documented displacement of -3.6

In plain terms, COc1ccc(CCNC(=O)CSc2nc3ccccc3o2)cc1OC has a documented displacement of 0.2

In plain terms, CCOc1ccc(N(CC(=O)NC2CCCCC2)S(=O)(=O)c2ccc(Cl)cc2)cc1 has a documented displacement of 2.4

In plain terms, C=CCN1C(=O)/C(=C/c2cccc(OCc3ccccc3Cl)c2)SC1=S has a documented displacement of 0.3

In plain terms, COc1ccc2[nH]c(=O)c(CN(C(=O)c3ccco3)C3CCCCC3)cc2c1 has a documented displacement of -0.4

In plain terms, Cc1ccc(-n2[nH]c(=O)c(/C=c3/c(C)c(C#N)c4nc5ccccc5n4c3=O)c2O)cc1C has a documented displacement of 83

In plain terms, Cc1ccc(-c2ccccc2)n1-c1ccc(Cl)c(C(=O)O)c1 has a documented displacement of -4

In plain terms, Cc1cc(C)c(NC(=O)c2c(-c3ccccc3)noc2C)c(C)c1 has a documented displacement of 1.9

In plain terms, O=C(Cn1ncc2c1-c1ccccc1OC2)Nc1nc2ccccc2s1 has a documented displacement of 0

----------
# Target or test system: Heat shock 70 kDa protein 1A (Homo sapiens) (UniProt P0DMV8)
# Sequence (P0DMV8 whole entry, looked up): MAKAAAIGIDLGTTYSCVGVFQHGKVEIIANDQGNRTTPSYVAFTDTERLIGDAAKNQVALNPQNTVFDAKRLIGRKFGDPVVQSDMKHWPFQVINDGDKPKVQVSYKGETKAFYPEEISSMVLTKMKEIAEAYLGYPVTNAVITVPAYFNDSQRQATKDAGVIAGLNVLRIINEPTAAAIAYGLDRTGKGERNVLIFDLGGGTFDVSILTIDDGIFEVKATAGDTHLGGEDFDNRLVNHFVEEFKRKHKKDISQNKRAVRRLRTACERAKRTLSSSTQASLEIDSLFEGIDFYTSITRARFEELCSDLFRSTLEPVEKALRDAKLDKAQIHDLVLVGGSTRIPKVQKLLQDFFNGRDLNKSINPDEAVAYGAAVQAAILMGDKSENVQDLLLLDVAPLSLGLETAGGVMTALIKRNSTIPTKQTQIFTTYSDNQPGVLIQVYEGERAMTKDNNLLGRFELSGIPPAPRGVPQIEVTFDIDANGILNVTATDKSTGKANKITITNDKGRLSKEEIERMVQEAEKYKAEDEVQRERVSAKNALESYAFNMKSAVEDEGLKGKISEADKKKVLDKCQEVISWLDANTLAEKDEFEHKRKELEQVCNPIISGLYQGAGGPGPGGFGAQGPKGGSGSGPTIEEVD
# Experiment: Hsp70 inhibitors, probe displacement, primary screen, biochemical, fluorescence polarization (AID 583);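 note: plate controls were vehicle for no effect and reference ligand for full effect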
# Details: mP, at 20 µM, hits give high values
In all, about 140,000 compounds went through this assay and about 80 (0.06%) were called active. The full list was thinned out, with actives kept by preference.
Reported displacement values are given for each entry in this list.

{"Compound": "O=c1oc2c(O)c(O)ccc2c2c1CCC2", "displacement": "1.2% (inactive)"}

Summary line: O=C1NC(=O)N(c2ccc(Br)cc2)C(=O)/C1=C\C=C\c1ccco1 , Heat shock 70 kDa protein 1A (Homo sapiens) (UniProt P0DMV8), reported displacement = -7.2% (inactive)

Summary line: Cc1cc(Cl)c2cc(C(=O)O)ccc2n1 , Heat shock 70 kDa protein 1A (Homo sapiens) (UniProt P0DMV8), reported displacement = 2.8% (inactive)

Summary line: Cc1cc(N)ccc1-n1c(C)ccc1C , Heat shock 70 kDa protein 1A (Homo sapiens) (UniProt P0DMV8), reported displacement = -2.7% (inactive)

----------
Reported displacement values are given for each entry in this list.
# Target or test system: Heat shock 70 kDa protein 1A (Homo sapiens) (UniProt P0DMV8)
# Experiment: Hsp70 inhibitors, probe displacement, primary screen, biochemical, fluorescence polarization (AID 583);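 note: plate controls were vehicle for no effect and reference ligand for full effect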
# Details: mP, at 20 µM, hits give high values
In all, about 140,000 compounds went through this assay and about 80 (0.06%) were called active. What follows is part of a selection rich in actives, with near analogues and random picks from the rest.
// return numeric value only (unit: %, not printed)

Record excerpt, results attached:
{"Smiles structure": "O=C(NN1CCOCC1)c1cc2ccccc2oc1=O", "Units of measure": "%", "displacement": 1.1}
{"Smiles structure": "O=C1NC(=O)N(c2ccc(Cl)cc2)C(=O)/C1=C/c1ccc(I)o1", "Units of measure": "%", "displacement": 15.2}

# context switch: different molecule, same displacement
In plain terms, CCOc1ccc(N2C(=O)NC(=O)/C(=C\c3ccc(I)o3)C2=O)cc1 has a documented displacement of 0.7

----------
Reported displacement values are given for each entry in this list.
# Target or test system: Heat shock 70 kDa protein 1A (Homo sapiens) (UniProt P0DMV8)
# Experiment: Hsp70 inhibitors, probe displacement, primary screen, biochemical, fluorescence polarization (AID 583);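 note: plate controls were vehicle for no effect and reference ligand for full effect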
# Details: mP, at 20 µM, hits give high values
Out of some 140,000 compounds screened, about 80 (0.06%) were called active. Shown is part of a subset that was picked to be rich in actives.
// return numeric value only (unit: %, not printed)

{"Molecule": "O=C(c1coc(=O)c(Br)c1)N1CCCc2ccccc21", "displacement, %": 6.5}
{"Molecule": "COc1ccc(CC(=O)c2cc(OC)c(OC)cc2CC(=O)O)cc1OC", "displacement, %": -0.7}
{"Molecule": "COC(=O)c1ccc(/C=C2\\SC(=S)N(C(Cc3ccccc3)C(=O)O)C2=O)cc1 (stereo not given)", "displacement, %": -0.2}
{"Molecule": "CN(C)c1ccc(/C=N/N=C2/NC(=O)C(Cc3ccc(Cl)cc3)S2)cc1 (stereo not given)", "displacement, %": -3.1}
{"Molecule": "COc1ccc(-c2cc(C(F)(F)F)nc(-n3cc(Br)cn3)n2)cc1", "displacement, %": -0.2}
{"Molecule": "CCN1CCN(P2(=O)C=C(c3ccccc3)OC(c3ccccc3)=C2)CC1", "displacement, %": 1.1}
{"Molecule": "O=C(Cn1c(=O)n(CC2CCCO2)c(=O)c2ccccc21)N1CCN(c2ccccc2)CC1 (stereo not given)", "displacement, %": 4.1}
{"Molecule": "CCOC(=O)c1sc2ncc([N+](=O)[O-])c(NC)c2c1N", "displacement, %": -5.6}

In plain terms, CCOC(=O)C(=O)Nc1ccc(F)cc1 has a documented displacement of 5.5

In plain terms, COC(=S)N/C(=N/S(=O)(=O)c1ccc(Cl)cc1)c1ccccc1 has a documented displacement of 0.8

----------
# Target or test system: Heat shock 70 kDa protein 1A (Homo sapiens) (UniProt P0DMV8)
# Experiment: Hsp70 inhibitors, probe displacement, primary screen, biochemical, fluorescence polarization (AID 583);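 note: plate controls were vehicle for no effect and reference ligand for full effect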
# Details: mP, at 20 µM, hits give high values
Among all 140,000 compounds or so, about 80 (0.06%) were called active. The full list was thinned out, with actives kept by preference.
Reported displacement values are given for each entry in this list.
// return numeric value only (unit: %, not printed)

{"Compound": "Cc1cccc(OCC(=O)N2CCN(C(=O)c3cccs3)CC2)c1", "Property label": "displacement", "Units of measure": "%", "Numeric result": -2.2}
{"Compound": "O=C1NC(=S)S/C1=C/c1cc(Br)ccc1OCc1ccccc1Cl", "Property label": "displacement", "Units of measure": "%", "Numeric result": 4.3}

In plain terms, CCOC(=O)c1c(NC(=O)c2cccnc2)sc2c1CCCC2 has a documented displacement of 6.4

In plain terms, O=C1c2ccccc2C(=O)N1c1ccc2c(c1)C(=O)N(c1ccccc1)C2=O has a documented displacement of 4.1

In plain terms, Oc1c(Cl)cc(Cl)cc1Sc1cc(Cl)cc(Cl)c1O has a documented displacement of 7.6

In plain terms, Nc1ccc2c(c1)C(=O)N(c1ccccc1)C2=O has a documented displacement of 8.5

In plain terms, CCOC(=O)c1c(NC(=O)c2cccnc2)sc2c1CCC2 has a documented displacement of -2

In plain terms, COc1cccc(C2NC(=O)NC(C)=C2C(=O)OCCc2ccccc2)c1OC (stereo not drawn) has a documented displacement of -3
